target: human cannabinoid CB2 receptor (Homo sapiens); construct: expressed in transfected cells; host or cells: Saccharomyces cerevisiae strain MMY23; test: Cannabinoid CB2 receptor agonist activity in yeast cells expressing the human CB2 receptor (FDGlu fluorescence); type: cell-based; conditions: 24 hours at 30° C., read-out: pEC50 at the CB2 receptor (agonist activity) (converted)
Counter-ions that a name gives are not always drawn.
experimental_readout: EC50

EC50 of CC1CCCN1Cc1cccc2cc(S(=O)(=O)c3ccccc3)cnc12 (centres unmarked) , assay on human cannabinoid CB2 receptor (Homo sapiens), is ≤ 10000 nM

EC50 of O=S(=O)(c1ccc2ccccc2c1)c1cnc2c(CN3CCCC(F)(F)C3)cccc2c1 , assay on human cannabinoid CB2 receptor (Homo sapiens), is < 1000 nM

More entries:
EC50 of CNCc1cccc2cc(S(=O)(=O)c3ccccc3)cnc12 [Example 26, hydrochloride] , assay on human cannabinoid CB2 receptor (Homo sapiens), is ≤ 10000 nM

EC50 of CC(C)N(C)C(C)c1cccc2cc(S(=O)(=O)c3ccccc3)cnc12 (centres unmarked) [Example 20, hydrochloride] , assay on human cannabinoid CB2 receptor (Homo sapiens), is < 1000 nM

EC50 of O=S(=O)(c1ccccc1)c1cnc2c(CN3CC(F)(F)C3)cccc2c1 [Example 34, hydrochloride] , assay on human cannabinoid CB2 receptor (Homo sapiens), is < 1000 nM

EC50 of CN(C)Cc1cccc2cc(S(=O)(=O)c3ccccc3)cnc12 , assay on human cannabinoid CB2 receptor (Homo sapiens), is ≤ 10000 nM

EC50 of CC(c1cccc2cc(S(=O)(=O)c3ccccc3)cnc12)N1CC(F)(F)C1 (centres unmarked) , assay on human cannabinoid CB2 receptor (Homo sapiens), is < 1000 nM

EC50 of CC1CCC(C)N1Cc1cccc2cc(S(=O)(=O)c3ccccc3)cnc12 (centres unmarked) , assay on human cannabinoid CB2 receptor (Homo sapiens), is ≤ 10000 nM

EC50 of O=S(=O)(c1ccc(Br)cc1)c1cnc2c(CN3CCCC(F)(F)C3)cccc2c1 , assay on human cannabinoid CB2 receptor (Homo sapiens), is < 1000 nM

EC50 of O=S1(=O)CCN(Cc2cccc3cc(S(=O)(=O)c4ccccc4)cnc23)CC1 [Example 32, hydrochloride] , assay on human cannabinoid CB2 receptor (Homo sapiens), is < 1000 nM

EC50 of O=S(=O)(c1ccc(F)cc1)c1cnc2c(CN3CCCC(F)(F)C3)cccc2c1 [Example 38, hydrochloride] , assay on human cannabinoid CB2 receptor (Homo sapiens), is < 1000 nM

EC50 of CC(C)NCc1cccc2cc(S(=O)(=O)c3ccccc3)cnc12 [Example 25, hydrochloride] , assay on human cannabinoid CB2 receptor (Homo sapiens), is < 1000 nM

EC50 of Cc1ccc(S(=O)(=O)c2cnc3c(CN4CCCC(F)(F)C4)cccc3c2)cc1Cl , assay on human cannabinoid CB2 receptor (Homo sapiens), is < 1000 nM

EC50 of O=S(=O)(c1ccccc1)c1cnc2c(CN3CCC(F)(F)CC3)cccc2c1 , assay on human cannabinoid CB2 receptor (Homo sapiens), is < 1000 nM

EC50 of O=S(=O)(c1ccccc1)c1cnc2c(CN3CCCC3)cccc2c1 [Example 1, hydrochloride] , assay on human cannabinoid CB2 receptor (Homo sapiens), is ≤ 10000 nM

EC50 of O=S(=O)(c1ccccc1)c1cnc2c(CN3CCCC(F)(F)C3)cccc2c1 [Example 27, hydrochloride] , assay on human cannabinoid CB2 receptor (Homo sapiens), is < 1000 nM

EC50 of Cc1ccc(S(=O)(=O)c2cnc3c(CN4CCCC(F)(F)C4)cccc3c2)cc1 [Example 39, hydrochloride] , assay on human cannabinoid CB2 receptor (Homo sapiens), is < 1000 nM

###

Entries and their measured Ki follow.
target: human cloned 5-HT6 receptors (Homo sapiens, UniProt P50406); construct: expressed in transfected cells; host or cells: HeLa cells (membranes); assay: Cyclase assay (cAMP production in membranes of HeLa 5HT6 cells, antagonism of 5-HT); type: biochemical; conditions: cyclase assay with 5-HT at 4xEC50, read-out: fpKi (functional pKi, antagonist potency) (converted)
Sequence (P50406 whole entry): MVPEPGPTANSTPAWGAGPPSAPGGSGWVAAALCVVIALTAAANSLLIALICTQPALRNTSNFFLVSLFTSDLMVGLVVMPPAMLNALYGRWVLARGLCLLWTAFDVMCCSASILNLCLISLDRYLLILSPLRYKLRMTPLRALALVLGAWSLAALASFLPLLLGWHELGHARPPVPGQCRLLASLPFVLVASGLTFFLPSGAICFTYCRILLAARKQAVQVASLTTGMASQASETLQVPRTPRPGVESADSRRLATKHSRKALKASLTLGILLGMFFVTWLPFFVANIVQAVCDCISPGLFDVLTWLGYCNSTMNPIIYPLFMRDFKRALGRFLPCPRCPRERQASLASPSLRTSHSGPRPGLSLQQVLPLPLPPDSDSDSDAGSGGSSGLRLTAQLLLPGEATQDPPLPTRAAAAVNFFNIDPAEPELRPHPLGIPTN
Structures can show the parent of a compound that is named as a salt.

Lab note: CC(c1cccc2cc(S(=O)(=O)c3ccccc3)cnc12)N1CCCCC1 (stereo not drawn) [Example 17] gave Ki of < 100 nM

Lab note: O=S(=O)(c1ccccc1)c1cnc2c(CCCN3CCCC3)cccc2c1 [Example 12, hydrochloride] gave Ki of < 100 nM

Lab note: CC(c1cccc2cc(S(=O)(=O)c3ccccc3)cnc12)N1CCOCC1 (stereo not drawn) [Example 18] gave Ki of ≤ 1000 nM

Lab note: CC(C)(c1cccc2cc(S(=O)(=O)c3ccccc3)cnc12)N1CCCC1 [Example 22, hydrochloride] gave Ki of ≤ 1000 nM

Lab note: CC1CCCCN1Cc1cccc2cc(S(=O)(=O)c3ccccc3)cnc12 (stereo not drawn) [Example 29, hydrochloride] gave Ki of ≤ 1000 nM

More entries:
Lab note: CC(c1cccc2cc(S(=O)(=O)c3ccccc3)cnc12)N1CCCC1 (stereo not drawn) [Example 16, hydrochloride] gave Ki of < 100 nM

Lab note: O=S(=O)(c1ccccc1)c1cnc2c(CN3CCCC(F)(F)C3)cccc2c1 [Example 27, hydrochloride] gave Ki of > 1000 nM

Lab note: COC1CCN(Cc2cccc3cc(S(=O)(=O)c4ccccc4)cnc23)CC1 [Example 28, hydrochloride] gave Ki of < 100 nM

Lab note: O=S(=O)(c1ccccc1)c1cnc2c(CCN3CCCC3)cccc2c1 [Example 10, hydrochloride] gave Ki of < 100 nM

Lab note: CC1CCC(C)N1Cc1cccc2cc(S(=O)(=O)c3ccccc3)cnc12 (stereo not drawn) [Example 6] gave Ki of < 100 nM

Lab note: O=S(=O)(c1ccccc1)c1cnc2c(CN3CCC4(CC3)OCCO4)cccc2c1 [Example 31, hydrochloride] gave Ki of < 100 nM

Lab note: CC1CCCN1Cc1cccc2cc(S(=O)(=O)c3ccccc3)cnc12 (stereo not drawn) [Example 8] gave Ki of < 100 nM

Lab note: O=S(=O)(c1ccccc1)c1cnc2c(CN3CCCC3)cccc2c1 [Example 1, hydrochloride] gave Ki of < 100 nM

Lab note: CC(C)N(C)C(C)c1cccc2cc(S(=O)(=O)c3ccccc3)cnc12 (stereo not drawn) [Example 20, hydrochloride] gave Ki of < 100 nM

Lab note: CCN(C)C(C)c1cccc2cc(S(=O)(=O)c3ccccc3)cnc12 (stereo not drawn) [Example 21, hydrochloride] gave Ki of < 100 nM

Lab note: CC(c1cccc2cc(S(=O)(=O)c3ccccc3)cnc12)N(C)C (stereo not drawn) [Example 19] gave Ki of < 100 nM

Lab note: CN(C)Cc1cccc2cc(S(=O)(=O)c3ccccc3)cnc12 [Example 7] gave Ki of < 100 nM

Lab note: CN1CCN(Cc2cccc3cc(S(=O)(=O)c4ccccc4)cnc23)CC1 [Example 3] gave Ki of < 100 nM

Lab note: O=S(=O)(c1ccc(F)cc1)c1cnc2c(CN3CCCC3)cccc2c1 [Example 23, hydrochloride] gave Ki of < 100 nM

Lab note: O=S1(=O)CCN(Cc2cccc3cc(S(=O)(=O)c4ccccc4)cnc23)CC1 [Example 32, hydrochloride] gave Ki of ≤ 1000 nM

Lab note: O=S(=O)(c1ccccc1)c1cnc2c(CCCN3CCOCC3)cccc2c1 [Example 14] gave Ki of < 100 nM

###

Entries and their measured EC50 follow.
molecular target: human cannabinoid CB2 receptor (Homo sapiens, UniProt P34972); construct: expressed in transfected cells; host or cells: Saccharomyces cerevisiae strain MMY23; experiment: Cannabinoid CB2 receptor agonist activity in yeast cells expressing the human CB2 receptor (FDGlu fluorescence); assay type: cell-based; conditions: 24 hours at 30° C., read-out: pEC50 at the CB2 receptor (agonist activity) (converted)
Sequence (P34972 whole entry): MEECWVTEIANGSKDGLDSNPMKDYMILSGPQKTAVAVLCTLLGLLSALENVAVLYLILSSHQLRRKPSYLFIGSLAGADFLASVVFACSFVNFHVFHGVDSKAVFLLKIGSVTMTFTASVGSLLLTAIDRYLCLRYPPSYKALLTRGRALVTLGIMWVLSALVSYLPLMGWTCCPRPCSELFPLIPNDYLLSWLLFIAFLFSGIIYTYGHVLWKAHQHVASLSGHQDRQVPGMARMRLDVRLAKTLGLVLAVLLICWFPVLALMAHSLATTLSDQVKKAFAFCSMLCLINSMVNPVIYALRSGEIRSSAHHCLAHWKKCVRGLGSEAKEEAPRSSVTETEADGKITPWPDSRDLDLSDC
Counter-ions that a name gives are not always drawn.

Some compounds with known EC50 results, for comparison:
Lab note: CN1CCN(Cc2cccc3cc(S(=O)(=O)c4ccccc4)cnc23)CC1 gave EC50 of > 31.6 µM

Lab note: O=S(=O)(c1ccc(Cl)cc1)c1cnc2c(CN3CCCC(F)(F)C3)cccc2c1 gave EC50 of < 1 µM

Lab note: COc1ccc(S(=O)(=O)c2cnc3c(CN4CCCC(F)(F)C4)cccc3c2)cc1Cl gave EC50 of ≤ 10 µM

Lab note: CC(c1cccc2cc(S(=O)(=O)c3ccccc3)cnc12)N1CCC(F)(F)C1 (centres unmarked) gave EC50 of < 1 µM

More entries:
Lab note: CC(=O)N1CCN(Cc2cccc3cc(S(=O)(=O)c4ccccc4)cnc23)CC1 [Example 24, hydrochloride] gave EC50 of ≤ 10 µM

Lab note: O=S(=O)(c1ccccc1)c1cnc2c(CN3CCC(F)(F)C3)cccc2c1 [Example 33, hydrochloride] gave EC50 of < 1 µM

###

Target: human cannabinoid CB2 receptor (Homo sapiens, UniProt P34972)
Construct: expressed in transfected cells; host or cells: Saccharomyces cerevisiae strain MMY23
Experiment: Cannabinoid CB2 receptor agonist activity in yeast cells expressing the human CB2 receptor (FDGlu fluorescence)
Format: cell-based
Details: 24 hours at 30° C., read-out: pEC50 at the CB2 receptor (agonist activity) (converted)
Description: Yeast (Saccharomyces cerevisiae) cells expressing the human cannabinoid CB2 receptor were generated by integration of an expression cassette into the ura3 chromosomal locus of yeast strain MMY23. […] Agonists were prepared as 10 mM solutions in DMSO. […] Fluorescence was plotted against compound concentration and iteratively curve fitted using a four parameter fit to generate a concentration effect value. Efficacy (Emax) was calculated from the equation […]
Counter-ions that a name gives are not always drawn.
experimental_readout: EC50

Lab note: COc1ccc(S(=O)(=O)c2cnc3c(CN4CCCC(F)(F)C4)cccc3c2)cc1OC gave EC50 of < 1000 nM

Lab note: O=S(=O)(c1ccc(F)cc1)c1cnc2c(CN3CCCC3)cccc2c1 [Example 23, hydrochloride] gave EC50 of ≤ 10000 nM

Lab note: COC1CCN(Cc2cccc3cc(S(=O)(=O)c4ccccc4)cnc23)CC1 [Example 28, hydrochloride] gave EC50 of < 1000 nM

Lab note: COc1ccc(S(=O)(=O)c2cnc3c(CN4CCCC(F)(F)C4)cccc3c2)cc1NC(C)=O gave EC50 of < 1000 nM

Lab note: CC1CCCCN1Cc1cccc2cc(S(=O)(=O)c3ccccc3)cnc12 (centres unmarked) [Example 29, hydrochloride] gave EC50 of ≤ 10000 nM

More entries:
Lab note: CC(c1cccc2cc(S(=O)(=O)c3ccccc3)cnc12)N1CCCC(F)(F)C1 (centres unmarked) gave EC50 of < 1000 nM

Lab note: O=S(=O)(c1ccccc1)c1cnc2c(CN3CCC4(CC3)OCCO4)cccc2c1 [Example 31, hydrochloride] gave EC50 of ≤ 10000 nM

Lab note: CC1CCCN(Cc2cccc3cc(S(=O)(=O)c4ccccc4)cnc23)C1 (centres unmarked) [Example 30, hydrochloride] gave EC50 of < 1000 nM
